Biological target: T1, sIL-6R (soluble IL-6 receptor; SBH Sciences) (human, UniProt P08887 20-365)
T1 construct: also called human IL-6R
T1 sequence: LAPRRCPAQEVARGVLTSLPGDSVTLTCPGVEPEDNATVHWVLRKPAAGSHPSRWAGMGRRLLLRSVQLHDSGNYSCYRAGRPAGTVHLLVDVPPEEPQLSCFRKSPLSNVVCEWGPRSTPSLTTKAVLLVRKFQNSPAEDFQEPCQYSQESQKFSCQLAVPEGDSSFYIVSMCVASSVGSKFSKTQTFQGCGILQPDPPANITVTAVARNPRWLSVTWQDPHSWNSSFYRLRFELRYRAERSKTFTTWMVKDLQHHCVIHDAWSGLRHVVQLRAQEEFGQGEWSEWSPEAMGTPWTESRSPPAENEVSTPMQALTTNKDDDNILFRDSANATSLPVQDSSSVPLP
Assay: SPR (BIAcore 3000), antibody on chip, sIL-6R analyte, 25 C
Description: All SPR measurements were performed on a BIAcore 3000 instrument (GE Biosciences, Piscataway, N.J.). BIAcore Software-BIAcore 3000 Control Software V3.2 was used for the operation and control of the BIAcore 3000 instrument. […] Data was analyzed by using the Kinetics Wizard and the manual fitting programs that are both included with the BiaEvaluation Software V4.1.
pKd: −log10 of the molar value.
result_type: pKd

- 59# (antibody, human IgG1, kappa, V domains shown, also called Sample # 59) VH: QVQLQESGPGLVRPSQTLSLTCTVSGYSITSDHAWSWVRQPPGRGLEWIGFISYSGMTTYNPSLKSRVTMLRDTSKNQFSLRLSSVTAADTAVYYCARCLARTTAMDYWGQGSLVTVSS VL: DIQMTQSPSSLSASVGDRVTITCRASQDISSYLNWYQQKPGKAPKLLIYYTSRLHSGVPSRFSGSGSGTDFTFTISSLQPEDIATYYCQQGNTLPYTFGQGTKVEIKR: 9.55
- 222# (antibody, human IgG1, kappa, V domains shown, also called Sample # 222) VH: QVQLQESGPGLVRPSQTLSLTCTVSGYSITSDHAWSWVRQPPGRGLEWIGYISYSGMITYNPSLKSRVTMLRDTSKNQFSLRLSSVTAADTAVYYCARCLARMTAMDYWGQGSLVTVSS VL: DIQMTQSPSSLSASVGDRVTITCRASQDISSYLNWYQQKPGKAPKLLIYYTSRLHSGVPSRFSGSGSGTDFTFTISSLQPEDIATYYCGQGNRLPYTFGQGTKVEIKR: 9.54
- 217# (antibody, human IgG1, kappa, V domains shown, also called Sample # 217) VH: QVQLQESGPGLVRPSQTLSLTCTVSGYSITSDHAWSWVRQPPGRGLEWIGYISYSGMITYNPSLKSRVTMLRDTSKNQFSLRLSSVTAADTAVYYCARCLARMTAMDYWGQGSLVTVSS VL: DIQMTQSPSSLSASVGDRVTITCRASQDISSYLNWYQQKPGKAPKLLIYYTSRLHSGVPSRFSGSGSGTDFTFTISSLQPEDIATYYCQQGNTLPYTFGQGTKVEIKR: 9.24
- 244# (antibody, human IgG1, kappa, V domains shown) VH: QVQLQESGPGLVRPSQTLSLTCTVSGYSITSDHAWSWVRQPPGRGLEWIGYISYSGITTYNPSLKSRVTMLRDTSKNQFSLRLSSVTAADTAVYYCARTLARMTAIDFWGQGSLVTVSS VL: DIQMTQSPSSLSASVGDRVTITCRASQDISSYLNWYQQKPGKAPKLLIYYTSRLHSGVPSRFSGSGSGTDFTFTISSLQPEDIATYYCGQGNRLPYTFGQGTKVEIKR: 9.78
- 55# (antibody, human IgG1, kappa, V domains shown, also called Sample # 55) VH: QVQLQESGPGLVRPSQTLSLTCTVSGYSITSDHAWSWVRQPPGRGLEWIGFISYSGMITYNPSLKSRVTMLRDTSKNQFSLRLSSVTAADTAVYYCARCLARTTAMDYWGQGSLVTVSS VL: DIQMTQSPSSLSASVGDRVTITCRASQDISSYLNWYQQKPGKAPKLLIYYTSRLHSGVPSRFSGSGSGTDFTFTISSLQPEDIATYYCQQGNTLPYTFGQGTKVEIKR: 9.41
- 230# (antibody, human IgG1, kappa, V domains shown, also called Sample # 230) VH: QVQLQESGPGLVRPSQTLSLTCTVSGYSITSDHAWSWVRQPPGRGLEWIGYISYSGMITYNPSLKSRVTMLRDTSKNQFSLRLSSVTAADTAVYYCARCLARTTAIDFWGQGSLVTVSS VL: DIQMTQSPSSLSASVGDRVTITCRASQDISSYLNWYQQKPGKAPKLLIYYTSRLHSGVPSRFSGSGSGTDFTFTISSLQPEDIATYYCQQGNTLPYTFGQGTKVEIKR: 9.35
